Listed here are molecules together with their documented DC50.
targetSystem: KRAS (Homo sapiens)
Construct: endogenous in cells; host or cells: KE39 (KRAS amplified) cells
Sequence (P01116 1-188 isoform P01116-2): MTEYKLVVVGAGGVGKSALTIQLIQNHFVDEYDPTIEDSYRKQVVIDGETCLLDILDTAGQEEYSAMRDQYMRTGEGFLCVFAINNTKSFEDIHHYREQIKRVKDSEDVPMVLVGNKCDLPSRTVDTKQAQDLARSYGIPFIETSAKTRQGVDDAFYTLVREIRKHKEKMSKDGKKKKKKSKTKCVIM
methodSummary: KRASamp MSD assay
Assay type: cell-based
conditionInfo: KE39 (KRAS amplified) cells, treated with test compounds for 24 hr, MSD readout of KRAS degradation

# molecule, targetSystem, readoutValue
data = [
    ("CCc1c(F)ccc2cc(O)cc(-c3ncc4c(N5CCC[C@@](C)(O)C5)nc(OC[C@]56CCCN5[C@H](COC(=O)N5CCC(CCOc7ccc8c(c7)n(C)c(=O)n8C7CCC(=O)NC7=O)CC5)CC6)nc4c3F)c12 (stereo partly shown)", "KRAS (Homo sapiens)", "< 1 nM"),
    ("CCc1c(F)ccc2cc(O)cc(-c3ncc4c(N5CCC[C@@](C)(O)C5)nc(OC[C@@]56CCCN5[C@@H](COC(=O)N5CCC(CN7CCC(c8ccc9c(c8)n(C)c(=O)n9C8CCC(=O)NC8=O)CC7)CC5)CC6)nc4c3F)c12 (stereo partly shown)", "KRAS (Homo sapiens)", "1 to 10 nM"),
    ("CCc1c(F)ccc2cc(O)cc(-c3ncc4c(N5CCCC(F)(F)C5)nc(OC[C@@]56CCCN5[C@H](COC(=O)N5CCC(CN7CCC(c8ccc9c(c8)n(C)c(=O)n9C8CCC(=O)NC8=O)CC7)CC5)CC6)nc4c3F)c12 (stereo partly shown)", "KRAS (Homo sapiens)", "< 1 nM"),
    ("CCc1c(F)ccc2cc(O)cc(-c3ncc4c(N5CCC[C@@](C)(O)C5)nc(OC[C@@]56CCCN5[C@H](COC(=O)N5CCC7(CCC(CN8CCC(c9ccc%10c(c9)n(C)c(=O)n%10C9CCC(=O)NC9=O)CC8)CC7)C5)CC6)nc4c3F)c12 (stereo partly shown)", "KRAS (Homo sapiens)", "< 1 nM"),
]

# lookup: CCc1c(F)ccc2cc(O)cc(-c3ncc4c(N5CCC[C@@](C)(O)C5)nc(OC[C@@]56CCCN5[C@H](COC(=O)N5CCC(OC7CCN(c8ccc9c(c8)n(C)c(=O)n9C8CCC(=O)NC8=O)CC7)CC5)CC6)nc4c3F)c12 (stereo partly shown) on KRAS (Homo sapiens), DC50 = < 1 nM

# lookup: CCc1c(F)ccc2cc(O)cc(-c3ncc4c(N5CCC[C@@](C)(O)C5)nc(OC[C@@]56CCCN5[C@H](COC(=O)N5CCC(CN7CCC(c8cc9c(cc8F)c(C8CCC(=O)NC8=O)nn9C)CC7)CC5)CC6)nc4c3F)c12 (stereo partly shown) on KRAS (Homo sapiens), DC50 = < 1 nM

# lookup: CCc1c(F)ccc2cc(O)cc(-c3ncc4c(N5CCC[C@@](C)(O)C5)nc(OC[C@@]56CCCN5[C@@H](COC(=O)N5CCC(CN7CCC(c8cc9c(cc8F)n(C8CCC(=O)NC8=O)c(=O)n9C)CC7)CC5)CC6)nc4c3F)c12 (stereo partly shown) on KRAS (Homo sapiens), DC50 = < 1 nM

# lookup: CCc1c(F)ccc2cc(O)cc(-c3ncc4c(N5CCC[C@@](C)(O)C5)nc(OC[C@]56CCCN5[C@@H](COC(=O)N5CCC(CN7CCC(c8cc9c(cc8F)n(C8CCC(=O)NC8=O)c(=O)n9C)CC7)CC5)CC6)nc4c3F)c12 (stereo partly shown) on KRAS (Homo sapiens), DC50 = < 1 nM

# lookup: CCc1c(F)ccc2cc(O)cc(-c3ncc4c(N5CCC[C@@](C)(O)C5)nc(OC[C@@]56CCCN5[C@@H](COC(=O)N5CCC(COc7ccc8c(c7)n(C)c(=O)n8C7CCC(=O)NC7=O)CC5)CC6)nc4c3F)c12 (stereo partly shown) on KRAS (Homo sapiens), DC50 = ≥ 10 nM

# lookup: CCc1c(F)ccc2cc(O)cc(-c3ncc4c(N5CCC[C@@](C)(O)C5)nc(OC[C@@]56CCCN5[C@H](COC(=O)N5CCC(C7(N8CCC(c9ccc%10c(c9)n(C)c(=O)n%10C9CCC(=O)NC9=O)CC8)CC7)CC5)CC6)nc4c3F)c12 (stereo partly shown) on KRAS (Homo sapiens), DC50 = < 1 nM

# lookup: CCc1c(F)ccc2cc(O)cc(-c3ncc4c(N5CCC[C@@](C)(O)C5)nc(OC[C@@]56CCCN5[C@H](COC(=O)N5CCC7(CC5)CC(N5CCC(c8ccc9c(c8)n(C)c(=O)n9C8CCC(=O)NC8=O)CC5)C7)CC6)nc4c3F)c12 (stereo partly shown) on KRAS (Homo sapiens), DC50 = < 1 nM
